The measured values listed here are drawn from patent US20250277012A1.

- SYSTEM: ferroportin (Homo sapiens, UniProt Q9NP59)
- Sequence (Q9NP59 1-571): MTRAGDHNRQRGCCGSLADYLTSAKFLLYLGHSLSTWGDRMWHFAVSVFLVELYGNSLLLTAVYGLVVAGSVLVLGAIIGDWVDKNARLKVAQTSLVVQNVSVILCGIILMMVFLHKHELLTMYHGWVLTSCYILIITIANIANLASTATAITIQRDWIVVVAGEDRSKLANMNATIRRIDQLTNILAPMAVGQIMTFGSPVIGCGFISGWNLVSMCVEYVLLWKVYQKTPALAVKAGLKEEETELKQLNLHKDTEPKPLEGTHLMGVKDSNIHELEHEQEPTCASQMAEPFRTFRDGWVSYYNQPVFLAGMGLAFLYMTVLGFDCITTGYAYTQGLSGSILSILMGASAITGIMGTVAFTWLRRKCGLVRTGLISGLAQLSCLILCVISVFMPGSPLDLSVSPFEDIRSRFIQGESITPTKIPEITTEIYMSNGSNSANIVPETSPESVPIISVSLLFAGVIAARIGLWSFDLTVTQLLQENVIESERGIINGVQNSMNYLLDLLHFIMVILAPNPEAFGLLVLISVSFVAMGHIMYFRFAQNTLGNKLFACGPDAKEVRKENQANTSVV
- PROTOCOL_NOTES: T47D cell-based ferroportin internalization assay in presence of mouse serum albumin (MSA)
- Design: a human breast carcinoma adherent cell line which endogenously expresses ferroportin; host or cells: T47D
- ASSAY_CONTEXT: Table 6E; T47D internalization assay with MSA
pIC50: −log10 of the molar value. Positions of bridges follow the written chain, without caps; N, C: chain ends. Non-standard residues stand in square brackets, D forms with d. Residues, ends and D or L forms follow the SMILES beside them. Groups on a side chain read outwards from the residue. *: point of attachment. X1 = C[N+](C)(CCNC(=O)CCCCCCCCCCCCCCCCC(=O)O)CC(=O)*; Dip = N[C@H](C(=O)O)C(c1ccccc1)c1ccccc1; NMeK = CN[C@@H](CCCCN)C(=O)O; Isovaleryl = CC(C)CC(=O)*; Ahx = NCCCCCC(=O)O
pIC50 reference

Fill in: ferroportin (Homo sapiens, UniProt Q9NP59) pIC50 for CC(C)CC(=O)N[C@@H](CCC(=O)O)C(=O)N[C@H](C(=O)N[C@@H](Cc1cnc[nH]1)C(=O)N[C@H](C(=O)N1CCC[C@H]1C(=O)N[C@H]1CSSC[C@@H](C(=O)N(C)[C@@H](CCCCNC(=O)CCCCCNC(=O)C[N+](C)(C)CCNC(=O)CCCCCCCCCCCCCCCCC(=O)O)C(=O)N[C@H](C(=O)N[C@H](CCCCN)C(N)=O)C(c2ccccc2)c2ccccc2)NC1=O)C(c1ccccc1)c1ccccc1)[C@@H](C)O [compound 198] (Isovaleryl-ETH[Dip]PCC[NMeK]([Ahx-X1])[Dip][dK]-NH2; disulfide 6-7) = 7.00 to 8.00
